tested on: HEK-293T; test: Incucyte cell viability with HEK293T; format: toxicity, cell-based; details: human, 12 h, 10 µM, compound concentration 10 uM, replicate number 2; further: unitless GR value; below 1 slowed growth and below 0 cell loss
For each record, write down the corresponding Growth Rate.
Give only the figure.

Exam item: Bench note: what Growth Rate did `C[C@@H]1C[C@H](N)C[C@H](c2ccncc2NC(=O)c2ccc(F)c(-c3c(F)cccc3F)n2)C1` show?
Marked response: 0.54

Exam item: Growth Rate for `C=CC(=O)Nc1cccc(C)c1Nc1ncc2cc(-c3c(Cl)c(OC)cc(OC)c3Cl)ccc2n1` ?
Marked response: -0.45

Exam item: Requested field: Growth Rate. Item: `C=CC(=O)Nc1cccc(C(=O)Nc2ccc(Nc3cc(-c4c(-c5ccc(F)cc5)nc(SC)n4C)ccn3)cc2)c1`
Marked response: 0.34

Exam item: Endpoint output: Growth Rate of `Cc1nc(-c2ccc(C(F)(F)F)cc2)sc1C(=O)NCc1ccc(OC(C)(C)C(=O)O)cc1` . Value?
Marked response: 0.93

Exam item: I have this compound here, `C[C@]12CC[C@@H]3c4ccc(C(N)=O)cc4CC[C@H]3[C@@H]1CC=C2c1cncc(F)c1` , and I need its recorded Growth Rate.
Marked response: 0.31

Exam item: Tell me the measured Growth Rate of `CC[C@@H](Nc1c(C#N)c(-c2ccc(-c3cccc(C)c3F)cc2)nc2cnccc12)C(=O)O` , please.
Marked response: 0.85

Exam item: For `Cl.Cl.c1ccc2c(-c3cnn4cc(-c5ccc(N6CCNCC6)cc5)cnc34)ccnc2c1` , what is its reported Growth Rate?
Marked response: -0.66

Exam item: Which Growth Rate is listed for CCn1c(-c2nc3cc(C(=O)N4CCCC(N)C4)ccc3n2C)cc2ccccc21.Cl (stereo unspecified) ?
Marked response: 0.8

Exam item: Look up Growth Rate for this compound: `Cc1cc(C)cc(C(=O)NOCCCCCC(=O)NO)c1`
Marked response: 0.82

Exam item: Return reported Growth Rate; argument: `O=C(Nc1cc(-c2cn[nH]c2)ccc1N1CCOCC1)c1ccc(-c2ccc3ncccc3c2)o1`
Marked response: -0.19

Exam item: Returns the measured Growth Rate for the input compound. Input: `Cn1nccc1-c1ccc(Sc2cccc(C3(C(N)=O)CCOCC3)c2)cc1`
Marked response: -0.18

Exam item: Consider the compound shown here: `CC(C)n1cnc2c(Nc3cccc(Cl)c3)nc(N[C@H]3CCCC[C@@H]3N)nc21` What is its recorded Growth Rate?
Marked response: -0.59

Exam item: Field request: Growth Rate | item: `Cc1[nH]c2c(N3CCCCC3)c(-c3ccccc3)nn2c(=O)c1-c1ccc(O)cc1`
Marked response: 0.88

Exam item: State the recorded Growth Rate for this entry: `Nc1ncnc2c1c(COc1cccc(Cl)c1)nn2C1CCOCC1`
Marked response: 0.61

Exam item: Form field: reported Growth Rate of `Cc1cccc([C@H]2CC[C@@H](N3CCN(c4cccnc4)CC3)CC2)c1.O=C(O)C(F)(F)F.O=C(O)C(F)(F)F`
Marked response: 0.66

Exam item: What does the data say about its Growth Rate? Entry: `CSc1ccc(C[C@@H](C)C(=O)O)cc1Nc1nc(N2CC[C@H](N(C)C)C2)cc(C(F)F)c1C#N.O=C(O)C(F)(F)F`
Marked response: 0.58

* * *

system: U2OS; experiment: Incucyte cell viability with U2OS; assay type: toxicity, cell-based; conditions: human, 12 h, 10 µM, compound concentration 10 uM, replicate number 2; further: unitless GR value; below 1 slowed growth and below 0 cell loss
Label 1 when Growth Rate is strictly below 0.8; otherwise label 0.

Exam item: Is the reported Growth Rate for `C[C@H](CCC(=O)O)[C@H]1CC[C@H]2[C@@H]3CC[C@@H]4C[C@H](O)CC[C@]4(C)[C@H]3C[C@H](O)[C@]12C` strictly below 0.8?
Marked response: 0

Exam item: Is Growth Rate strictly under 0.8 for the entry `Cc1nc2cccnc2n2c(-c3cc([C@@]4(O)CCCOC4)ccc3Cl)nnc12` ?
Marked response: 0

Exam item: Is Growth Rate strictly under 0.8 for the entry `O=C(Cc1ccccc1[N+](=O)[O-])Nc1ccc(-c2ccc(C(O)(C(F)(F)F)C(F)(F)F)cc2F)cc1` ?
Marked response: 0

Exam item: Does `CNCc1ccc(-c2cc(-c3nc(-c4ccc(S(=O)(=O)C(C)C)cc4)cnc3N)on2)cc1` have Growth Rate strictly under 0.8?
Marked response: 1

Exam item: Below 0.8 on Growth Rate? Entry `C[C@@H]1COCCN1c1cc(=O)n2c(n1)N(Cc1cncc(Cl)c1)[C@H](C(F)(F)F)CC2`
Marked response: 0

* * *

tested on: Fibroblast; experiment: Incucyte cell viability with human fibroblast; format: toxicity, cell-based; details: 12 h, 10 µM, compound concentration 10 uM, replicate number 2; further: unitless GR value; below 1 slowed growth and below 0 cell loss
Reported Property: Growth Rate
Lab note: write the figure by itself, no unit.

Exam item: Please look up its Growth Rate: `CC(C)C[C@H](NC(=O)[C@@H](O)[C@H](N)Cc1ccccc1)C(=O)O`
Marked response: 0.72

Exam item: I am curious: what Growth Rate value has been reported for `CNc1ncc2cc(-c3ccc(-c4ncccc4F)cc3Cl)c(=O)n(C[C@H]3OC[C@H](N)CO3)c2n1` ?
Marked response: -0.06

Exam item: Can you look up the measured Growth Rate of `Cl.O=S(=O)(c1cccc2c(I)cccc12)N1CCCNCC1` for me?
Marked response: 0.87

Exam item: What does the data say about its Growth Rate? Entry: `CNc1nc(-c2cc(C(=O)N3CCN(Cc4ccc(Cl)cc4)CC3)c(Cl)cn2)cs1`
Marked response: -0.28

Exam item: Returns the measured Growth Rate for the input molecule. Input: `Cc1cc(-c2nncc3c(C(C)(C)C)c(OCc4ncnn4C)nn23)no1`
Marked response: 0.98

Exam item: GET /values?readout=Growth Rate&item= `Cl.O=C(c1ccc(-c2ccc(Cl)cc2)o1)N(Cc1ccccn1)c1ccc(N2CCNCC2)cc1`
Marked response: -0.6

Exam item: Param item = `CC1CCN(C(=O)[C@H](CCn2cccc2C#N)NS(=O)(=O)c2cccc3[nH]ccc23)CC1` ; retrieve measured Growth Rate.
Marked response: 0.9

Exam item: Please report the recorded Growth Rate for `CN(C)C(=O)Cn1cc(-c2ccc(-c3nnc4ccccn34)cc2)cn1` .
Marked response: 0.97

Exam item: Entry under review: `C[C@@H]1OCC2(CCN(c3cnc(Sc4ccnc(N)c4Cl)c(N)n3)CC2)[C@@H]1N` . Reported Growth Rate?
Marked response: 0.8

Exam item: Could you share which Growth Rate value was measured for `O=C(O)CCn1c2c(c3ccccc31)C[C@H](NS(=O)(=O)c1ccc(F)cc1)CC2` ?
Marked response: 0.99

Exam item: Endpoint output: Growth Rate of `CCCCC/C=C/C=C1/C(=O)C=C[C@@H]1C/C=C\CCCC(=O)O` . Value?
Marked response: 0.93

* * *

system: Fibroblast; test: Incucyte cell viability with human fibroblast; type: toxicity, cell-based; conditions: 12 h, 10 µM, compound concentration 10 uM, replicate number 2; further: unitless GR value; below 1 slowed growth and below 0 cell loss
Labels assigned by Growth Rate range: band A: < 0.07; band B: ≥ 0.07 and < 0.6; band C: ≥ 0.6

Exam item: Category of `O=C(Nc1ccc(-n2nc(-c3cccnc3)cc2C(F)(F)F)cn1)c1ccc(-c2ccccc2)c(F)c1` :
Marked response: band C

Exam item: // bin(item) where item = COc1ccc(CC(=O)NC(N/C(=N/C#N)Nc2cccc3ncccc23)C(C)(C)C)cc1OC (centres undefined)
Marked response: band B

Exam item: Looking at `COc1cc(C(=O)NC2CCN(C)CC2)ccc1Nc1ncc2c(n1)N(C1CCCC1)CC(F)(F)C(=O)N2C` , which class would you pick?
Marked response: band C

Exam item: Which class is correct for the following molecule? `CC(C)(C)S(=O)(=O)c1ccc2nccc(Nc3n[nH]c4ccc(F)cc34)c2c1`
Marked response: band B

Exam item: For the record `O=C(O)CCCc1cc2cc(Cl)ccc2n1S(=O)(=O)c1ccc2ncsc2c1` , report the class its Growth Rate corresponds to.
Marked response: band C

Exam item: Which Growth Rate band matches `C[C@H](CCC(=O)O)[C@H]1CC[C@H]2[C@@H]3CC[C@@H]4C[C@H](O)CC[C@]4(C)[C@H]3CC[C@]12C` ?
Marked response: band C

Exam item: Returns: class label. Input: `COc1ccc(-c2cc3c(C)nc(N)nc3n([C@H]3CC[C@H](OCCO)CC3)c2=O)cn1`
Marked response: band A

Exam item: Sort into band: `c1ccc(Cn2c(N3CCNCC3)nc3ccccc32)cc1`
Marked response: band B

Exam item: Class (by measured Growth Rate) for `CCN1C(=O)/C(=C(\NC2CCN(C)CC2)c2ccc3c(c2)OCO3)c2cc(C(C)=O)ccc21`
Marked response: band B

Exam item: Categorize the following entry: `CC(C)C[C@H](NC(=O)c1cc2ccccc2s1)C(=O)N1CCN(C(=O)[C@H](CO)NS(=O)(=O)c2ccc(Cl)cc2Cl)CC1`
Marked response: band A

Exam item: Bin this entry: `Cc1cn(CCN2CCN(c3ccccc3-c3cc(C#N)cc(C(=O)NCCCN4CCCC4)c3)CC2)c2ccccc12`
Marked response: band A

Exam item: Lab log: `N#CN1CC[C@@H](C(=O)Nc2nc3c(s2)CN(C(=O)CN=[N+]=[N-])CC3)C1` — assign Growth Rate category
Marked response: band B

Exam item: Please let me know in which category the item `FC(F)(F)c1ccc(Nc2ncnc3cc(-c4ncccc4C(F)(F)F)ccc23)cc1` belongs.
Marked response: band A

Exam item: Band for the recorded Growth Rate of `CCc1nc(C2CCC2)n2nc(-c3ccccc3)[nH]c(=O)c12` ?
Marked response: band A

Exam item: Place this molecule in its band: `Cc1cn([C@H](C)CC#N)c(=O)c2cc(Cn3nc(C(F)F)cc3Cl)nn12`
Marked response: band B

Exam item: Quick check: band for `COc1ccc(-n2nc3c4ccccc4[nH]cc-3c2=O)cc1`
Marked response: band C

Exam item: Which band does `C=CC(=O)Nc1cc(Nc2nccc(-n3cc(CN(C)C)c(-c4ccccc4)n3)n2)c(OC)cc1N1CCOCC1` fall in?
Marked response: band C

Exam item: Kindly state the category for this molecule: `Cc1c(N2CCCC2)nc2ccc(Br)cc2c1C(=O)NC[C@H](CCC(=O)O)c1ccccc1Cl.Cl.O`
Marked response: band C

Exam item: Determine which band this molecule sits in: `FC(F)(F)c1ccccc1-c1cc(C(F)(F)F)c2[nH]c(C3=NOC4(CCCCC4)C3)nc2c1`
Marked response: band A

Exam item: Class? Entry: `CC(C)NC(=O)[C@H]1CCC[C@H]1Nc1nc(Nc2ccc(CN(C)C)cc2)ncc1Br.Cl`
Marked response: band A

Exam item: # bin lookup: classify `C[C@@H](CN1CCC(Cc2ccccc2)CC1)[C@@H](O)c1ccc(O)cc1` by its Growth Rate
Marked response: band B

Exam item: Each molecule maps to one class by Growth Rate. Which class for `Clc1cccc(Nc2nccc(NCCCN3CCOCC3)n2)c1` ?
Marked response: band B
